test system: HCI01 (cells of a triple-negative basal-like breast cancer xenograft); experiment: cell viability (% of vehicle); higher = less cytotoxic; details: 10 µM; 72 h;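 also: PDX cells carrying CMV promoter-driven luciferase, viability read as total photon flux per second by IVIS imaging following D-luciferin, vehicle control 0.1% DMSO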
Readout kind: cell viability
One number for each entry.

COc1ccc(C(=O)N2CCCC2=O)cc1 = 102

For every item below, please supply its cell viability.
1. COc1ccc(C(CN(C)C)C2(O)CCCCC2)cc1.Cl (centres undefined)
2. OC(c1ccccc1)(c1ccccc1)C1CCNCC1
3. Cn1c(COP(=O)(NCCBr)NCCBr)cnc1[N+](=O)[O-]

OUT:
1: 103; 2: 98.1; 3: 99.5

For every item below, please supply its cell viability.
1. CN(C)C(=O)C(CCN1CCC(O)(c2ccc(Cl)cc2)CC1)(c1ccccc1)c1ccccc1.Cl [Loperamide HCl]
2. CC(=O)OC1CC2CCC3C(CCC4(C)C3CC([N+]3(C)CCCCC3)C4OC(C)=O)C2(C)CC1[N+]1(C)CCCCC1.[Br-].[Br-] (centres undefined) [Pancuronium dibromide]

OUT:
1: 102; 2: 99.4

For every item below, please supply its cell viability.
1. N/C(N)=N\N.Cl [Aminoguanidine hydrochloride]
2. CC(C)OC(=O)[C@H](C)N[P@](=O)(CO[C@H](C)Cn1cnc2c(N)ncnc21)Oc1ccccc1

OUT:
1: 100; 2: 97.2

IN: Consider the compound shown here: `C[C@]12COC(=O)C[C@@H]1CC[C@@H]1[C@@H]2CC[C@@]2(C)[C@H]1CC[C@]2(C)O` What is its recorded cell viability?
OUT: 98.9

====

test system: UCD52 (cells of a triple-negative basal-like breast cancer xenograft); assay: cell viability (% of vehicle); higher = less cytotoxic; conditions: 10 µM; 72 h
Readout kind: cell viability
Numbers only.

See these solved cases before continuing.
N/C(N)=N\N.Cl [Aminoguanidine hydrochloride] = 99.6
NC(=O)CN1CC(O)CC1=O (stereo not drawn) = 117

For every item below, please supply its cell viability.
1. O=C(OC1C[N+]2(CCCOc3ccccc3)CCC1CC2)C(O)(c1cccs1)c1cccs1.[Br-] (stereo not drawn) [Aclidinium Bromide]
2. Cc1cccc(C(C)c2cnc[nH]2)c1C (stereo not drawn)
3. CN1C(=O)CCS(=O)(=O)C1c1ccc(Cl)cc1 (stereo not drawn)
4. O=C1CCC2(O)C3Cc4ccc(O)c5c4C2(CCN3CC2CC2)C1O5 (stereo not drawn) [Naltrexone]
5. O=C(OC1CC2CCC(C1)[N+]21CCCC1)C(O)(c1ccccc1)c1ccccc1.[Cl-] (stereo not drawn) [Trospium chloride]
6. O=C(O)c1nn(Cc2ccc(Cl)cc2Cl)c2ccccc12
7. CN1C2CCC1CC(OC(=O)C(CO)c1ccccc1)C2 (stereo not drawn)
8. C[C@]12COC(=O)C[C@@H]1CC[C@@H]1[C@@H]2CC[C@@]2(C)[C@H]1CC[C@]2(C)O

OUT:
[79.7, 92.7, 104, 94.5, 101, 82.6, 74.2, 95.8]

For every item below, please supply its cell viability.
1. Cl.NCCc1c[nH]c2ccc(O)cc12 [Serotonin HCl]
2. Nc1nc(N)nc(NC2CC2)n1
3. C[N+](C)(C)CC(=O)O.[Cl-] [Betaine hydrochloride]

OUT:
100
100
82

====

Provide the reported cell viability of each item.
tested on: HCI11 (cells of an ER-positive luminal breast cancer xenograft); test: cell viability (% of vehicle); higher = less cytotoxic; details: 10 µM; 72 h

C[C@]12COC(=O)C[C@@H]1CC[C@@H]1[C@@H]2CC[C@@]2(C)[C@H]1CC[C@]2(C)O = 89.1
Cc1cccc(C(C)c2cnc[nH]2)c1C.Cl (configuration not stated) [Dexmedetomidine HCl] = 103
CC1CNCCc2ccc(Cl)cc21.Cl (configuration not stated) [Lorcaserin HCl] = 81.3
CCC1(c2cccc(O)c2)CCCCN(C)C1.Cl (configuration not stated) [Meptazinol HCl] = 94

For every item below, please supply its cell viability.
1. CCC1(c2ccc(N)cc2)CCC(=O)NC1=O (configuration not stated) [Aminoglutethimide]
2. O=C(O)CCCc1ccc(N(CCCl)CCCl)cc1
3. CC(O)(CS(=O)(=O)c1ccc(F)cc1)C(=O)Nc1ccc(C#N)c(C(F)(F)F)c1 (configuration not stated) [Bicalutamide]
4. Cl.NCC1(CC(=O)O)CCCCC1 [Gabapentin HCl]

OUT:
103
92
90.2
90.2

For every item below, please supply its cell viability.
1. CCCCCCCCCCCCCCCC[n+]1ccccc1.[Cl-] [Cetylpyridinium Chloride]
2. C=C1CC2C(CCC3(C)C(=O)CCC23)C2(C)C=CC(=O)C=C12 (configuration not stated)
3. COc1ccc(C(CN(C)C)C2(O)CCCCC2)cc1.Cl (configuration not stated)
4. CCCCCCCCCCCC[N+](C)(C)CCOc1ccccc1.[Br-] [Domiphen Bromide]

OUT:
53.1
124
103
50.1
